# Assayed target: yeast histone H3-H4 tetramer (Saccharomyces cerevisiae, UniProt P61830 1-136; P02309 1-103)
# Assay info: ITC; ITC200 at 20 °C; 0.5 mM ARB2 or mutant in the injector, 0.2 mM H2A/B or 0.25 mM H3/4 in the sample cell; 25 mM Tris-HCl pH 7.5, 200 mM NaCl; single-site fitting model
# Run parameters: both partners purified
Outcome measure: stoichiometry N

Consider the worked cases shown below.
ARB2 domain of Hda1 (Hda1^457–698) (domain or fragment, Saccharomyces cerevisiae, UniProt P53973 457-698, looked up, Hda1 (histone deacetylase), S. cerevisiae, C-terminal ARB2 domain, residues 457-698; Homodimer in the crystal (symmetry-related molecules) and by size-exclusion chromatography; A selenomethionine derivative was used for phasing only; also called Native-Hda1^457–698; wild-type ARB2 domain; source: E. coli BL21 (DE3), purified (Ni-NTA, HiTrap Q FF, Superdex 200)) LQKAIRQQQQHYLSDEFNFVTLPLVSMDLPDNTVLCTPNISESNTIIIVVHDTSDIWAKRNVISGTIDLSSSVIIDNSLDFIKWGLDRKYGIIDVNIPLTLFEPDNYSGMITSQEVLIYLWDNYIKYFPSVAKIAFIGIGDSYSGIVHLLGHRDTRAVTKTVINFLGDKQLKPLVPLVDETLSEWYFKNSLIFSNNSHQCWKENESRKPRKKFGRVLRCDTDGLNNIIEERFEEATDFILDS ... 1.52
ARB2-M1 (residues Gln463, His467 and Asp471 mutated to Ala) (domain or fragment, Saccharomyces cerevisiae, UniProt P53973 457-698, looked up, Hda1, S. cerevisiae, ARB2 domain, residues 457-698, with three substitutions around the groove; source: E. coli BL21 (DE3), purified (Ni-NTA, HiTrap Q FF, Superdex 200)) LQKAIRAQQQAYLSAEFNFVTLPLVSMDLPDNTVLCTPNISESNTIIIVVHDTSDIWAKRNVISGTIDLSSSVIIDNSLDFIKWGLDRKYGIIDVNIPLTLFEPDNYSGMITSQEVLIYLWDNYIKYFPSVAKIAFIGIGDSYSGIVHLLGHRDTRAVTKTVINFLGDKQLKPLVPLVDETLSEWYFKNSLIFSNNSHQCWKENESRKPRKKFGRVLRCDTDGLNNIIEERFEEATDFILDS ... 0.78
ARB2-M3 (residues Val481, Ser482, Met483 and Asp484 mutated to Ala) (domain or fragment, Saccharomyces cerevisiae, UniProt P53973 457-698, looked up, Hda1, S. cerevisiae, ARB2 domain, residues 457-698, with four substitutions around the groove; source: E. coli BL21 (DE3), purified (Ni-NTA, HiTrap Q FF, Superdex 200)) LQKAIRQQQQHYLSDEFNFVTLPLAAAALPDNTVLCTPNISESNTIIIVVHDTSDIWAKRNVISGTIDLSSSVIIDNSLDFIKWGLDRKYGIIDVNIPLTLFEPDNYSGMITSQEVLIYLWDNYIKYFPSVAKIAFIGIGDSYSGIVHLLGHRDTRAVTKTVINFLGDKQLKPLVPLVDETLSEWYFKNSLIFSNNSHQCWKENESRKPRKKFGRVLRCDTDGLNNIIEERFEEATDFILDS ... 0.9

Given the entry ARB2-M2 (residues Tyr468 and Glu472 mutated to Ala) (domain or fragment, Saccharomyces cerevisiae, UniProt P53973 457-698, looked up, Hda1, S. cerevisiae, ARB2 domain, residues 457-698, with two substitutions around the groove; source: E. coli BL21 (DE3), purified (Ni-NTA, HiTrap Q FF, Superdex 200)) LQKAIRQQQQHALSDAFNFVTLPLVSMDLPDNTVLCTPNISESNTIIIVVHDTSDIWAKRNVISGTIDLSSSVIIDNSLDFIKWGLDRKYGIIDVNIPLTLFEPDNYSGMITSQEVLIYLWDNYIKYFPSVAKIAFIGIGDSYSGIVHLLGHRDTRAVTKTVINFLGDKQLKPLVPLVDETLSEWYFKNSLIFSNNSHQCWKENESRKPRKKFGRVLRCDTDGLNNIIEERFEEATDFILDS , report its measured stoichiometry N.
1.1
